Cited source: patent US20150344540A1

Target: human GLP-1 receptor (Homo sapiens, UniProt P43220)
Sequence (P43220 24-463): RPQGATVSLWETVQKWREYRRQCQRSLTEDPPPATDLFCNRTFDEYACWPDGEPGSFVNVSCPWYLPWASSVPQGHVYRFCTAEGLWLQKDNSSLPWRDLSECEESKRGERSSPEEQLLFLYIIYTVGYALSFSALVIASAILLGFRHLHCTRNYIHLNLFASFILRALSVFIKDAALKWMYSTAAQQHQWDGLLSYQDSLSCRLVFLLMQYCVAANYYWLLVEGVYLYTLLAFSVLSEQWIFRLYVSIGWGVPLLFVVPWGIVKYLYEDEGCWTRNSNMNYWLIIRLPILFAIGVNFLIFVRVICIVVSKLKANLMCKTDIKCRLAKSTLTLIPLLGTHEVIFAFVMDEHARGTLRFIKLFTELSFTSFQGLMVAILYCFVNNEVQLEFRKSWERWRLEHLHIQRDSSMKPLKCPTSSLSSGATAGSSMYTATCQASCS
Assay: Functional GLP-1 receptor assay, in vitro potency (CRE luciferase; whole cells)
Format: cell-based
Conditions: GLP1R CRE luc 1% HSA EC50 Mean Value, BHK cells expressing human GLP-1 receptor, 1% HSA
Where no end group is shown, it is not given here.
RECORDED ENDPOINT: EC50 (nM)
Form entry: value (nM) — number only.

Below, each entry is followed by its recorded EC50 result.
{"SUBSTANCE": "HAEGTFTNDMTNYLEGEAVKEFIAWLVEKGKEFL-NH2 [Compound 27]", "READOUT UNIT": "nM", "DATA VALUE": 0.028}
{"SUBSTANCE": "HAEGTFTSDVSSYLEGQAAKEFIAWLVEKVKEHL-NH2 [Compound 107]", "READOUT UNIT": "nM", "DATA VALUE": 0.01}
{"SUBSTANCE": "HAEGTFTSDVSSYLEGQAAKEFIAWLVEKVHEFL-NH2 [Compound 141]", "READOUT UNIT": "nM", "DATA VALUE": 0.03}
{"SUBSTANCE": "H-HAEGTFTSDVSSYLEGQAAKEFIAWLVEKVKEFLER-OH [Compound 130]", "READOUT UNIT": "nM", "DATA VALUE": 0.011}
{"SUBSTANCE": "H-HAEGTFTSDVSSYLEGQAAKEFIAWLVEKVKEFLEK-OH [Compound 124]", "READOUT UNIT": "nM", "DATA VALUE": 0.011}

Lookup result for H-HAEGTFTSDVSSYLEGQAAKEFIAWLVEKVKEFLDK-OH [Compound 129] ; measured EC50: 0.012

Lookup result for HAEGTFTSDVSSYLEEEAVKEFIAWLVEKVKEFL-NH2 [Compound 135] ; measured EC50: 0.114

Lookup result for HAEGTFTSDVSSYLEGQAAKEFIAWLVEKVKEFL-NH2 [Compound 104] ; measured EC50: 0.023

Lookup result for H-HGEGTFTSDVSSYLEEEAVKEFIAWLVEKVKEKL-NH2 [Compound 111] ; measured EC50: 0.076
